biological target: Protein Mdm4 (Homo sapiens) + E3 ubiquitin-protein ligase Mdm2 (Homo sapiens) (UniProt O15151+Q00987); experiment: inhibitors of human Mdm2-MdmX association, primary screen, cell-based, luminescence, split luciferase, SaOS-2, uHTS (AID 485346); settings: SaOS-2 split-luciferase Mdm2/MdmX complementation, at 8 µM, stronger effect = higher value
Sequence (O15151 whole entry, looked up): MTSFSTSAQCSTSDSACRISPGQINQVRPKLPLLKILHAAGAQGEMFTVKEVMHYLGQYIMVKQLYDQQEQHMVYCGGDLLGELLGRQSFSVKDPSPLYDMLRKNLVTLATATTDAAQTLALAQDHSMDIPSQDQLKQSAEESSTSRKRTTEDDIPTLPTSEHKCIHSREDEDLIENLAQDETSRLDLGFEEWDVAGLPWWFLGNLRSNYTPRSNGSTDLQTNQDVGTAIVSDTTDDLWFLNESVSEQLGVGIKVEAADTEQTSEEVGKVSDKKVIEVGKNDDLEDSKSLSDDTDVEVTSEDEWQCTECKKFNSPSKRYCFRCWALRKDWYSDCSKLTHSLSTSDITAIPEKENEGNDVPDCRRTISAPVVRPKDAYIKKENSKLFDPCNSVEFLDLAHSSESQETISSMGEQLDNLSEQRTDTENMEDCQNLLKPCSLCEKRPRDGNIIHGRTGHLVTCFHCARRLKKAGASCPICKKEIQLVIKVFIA
Sequence (Q00987 whole entry, looked up): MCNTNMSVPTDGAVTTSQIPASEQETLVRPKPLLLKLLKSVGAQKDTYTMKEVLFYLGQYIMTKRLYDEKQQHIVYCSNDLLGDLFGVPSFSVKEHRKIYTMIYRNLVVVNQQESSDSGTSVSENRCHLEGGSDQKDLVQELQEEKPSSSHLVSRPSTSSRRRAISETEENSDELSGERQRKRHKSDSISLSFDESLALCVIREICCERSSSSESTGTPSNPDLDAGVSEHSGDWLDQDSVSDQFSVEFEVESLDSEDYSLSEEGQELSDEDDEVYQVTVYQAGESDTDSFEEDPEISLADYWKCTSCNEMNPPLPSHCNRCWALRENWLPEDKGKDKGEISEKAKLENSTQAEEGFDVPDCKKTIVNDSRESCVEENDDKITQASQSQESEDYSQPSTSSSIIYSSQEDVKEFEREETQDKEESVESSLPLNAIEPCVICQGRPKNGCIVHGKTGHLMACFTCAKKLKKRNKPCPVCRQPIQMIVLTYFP
In all, about 330,000 compounds went through this assay and about 10,000 (3%) were called active. The sample holds actives, similar compounds and a random draw of the others, so the mix is not that of the screen.
Measured attribute: inhibition (%)
Answers are plain numbers, in %.

I would be grateful if you could provide inhibition for each of the following entries.
1. COc1ccccc1-n1nnnc1SCC(=O)NC(=O)Cc1ccccc1
2. Cn1c(=O)n(C)c2cc(/C=N/NC(=O)c3cccc(Br)c3)ccc21
3. CCOc1ccc(S(=O)(=O)Nc2cccc(C(=O)NCC3(N4CCCCC4)CCCCC3)c2)cc1
4. COc1ccc(CNC(=O)COC(=O)c2sccc2C)cc1OC
5. CC(C)(C)Nc1nc(-c2ccccn2)nc2ccccc12

[-11.3, 19.4, 66.6, 14.3, 87.5]

Could you tell me inhibition for each of these compounds? They are listed below.
1. COc1ccc([C@H]2CC(=O)C=C(c3ccc(OC(F)(F)F)cc3)C2)cc1OC
2. COc1cnc(-c2ccccn2)nc1Oc1ccc(C(C)(C)C)cc1
3. O=C(O)CCCN1C(=O)c2ccccc2Sc2ncccc21
4. c1ccc2c(NCC3CCCO3)nc(-c3ccncc3)nc2c1 (configuration not stated)
5. COc1ccccc1N1CCN(S(=O)(=O)c2ccc(Cl)cc2)CC1
6. Cc1ccc(CNC(=O)c2c(-c3ccccc3)noc2C)cc1
7. Cc1ccc(N(Cc2ccc(C(=O)Nc3ccccc3C(=O)NCc3ccco3)cc2)S(C)(=O)=O)cc1C
8. Cc1cccc(Nc2ccccc2C(=O)NCc2ccco2)c1C

1. -6.36
2. 37.6
3. -8.61
4. -16.8
5. 0.916
6. -12.1
7. 38.7
8. 54.5

For every record below, what is its inhibition?
1. Cn1c(=O)n(C)c2cc(C(=O)Nc3ccc4c(c3)OCO4)ccc21
2. COc1ccccc1-n1nnnc1S(=O)(=O)Cc1ccc(Cl)cc1

60.2
99.3

Below is a list of compounds. For each, state its recorded inhibition.
1. Cc1[nH]c(C)c(S(=O)(=O)N2CCN(c3cccc(C(F)(F)F)c3)CC2)c1C(=O)N1CCCC1
2. COC(=O)c1ccc(/C=N/OCC(=O)Nc2cc(F)ccc2F)cc1
3. CCOc1ccc(NS(=O)(=O)c2ccc(C(=O)NCC(c3ccccc3OC)N3CCCC3)cc2)cc1 (configuration not stated)
4. Cc1cc(C)c(S(=O)(=O)N2C=CC(C(F)(F)F)=NCC2)c(C)c1

1: 14.7; 2: -13.4; 3: 38.1; 4: 17.6

====

target: Protein Mdm4 (Homo sapiens) + E3 ubiquitin-protein ligase Mdm2 (Homo sapiens) (UniProt O15151+Q00987); experiment: inhibitors of human Mdm2-MdmX association, primary screen, cell-based, luminescence, split luciferase, SaOS-2, uHTS (AID 485346); conditions: SaOS-2 split-luciferase Mdm2/MdmX complementation, at 8 µM, stronger effect = higher value
The campaign covered roughly 330,000 compounds. About 10,000 (3%) were called active. The sample as a whole holds a higher share of actives than the screen did.
Record form. Attribute: inhibition. Fill in for each entry.
Answers are plain numbers, in %.

Please review the following examples before continuing.
{"Molecule": "COc1ccc(C(C)=O)cc1CSc1nc2nc(C)cc(C)n2n1", "Unit label": "%", "inhibition": -8.43}
{"Molecule": "CC(=O)NC(Cc1ccc(F)c(F)c1)C(=O)NC1CCN(c2nnnn2-c2ccccc2)CC1 (stereo not given)", "Unit label": "%", "inhibition": 6.6}
{"Molecule": "CC1=NN(c2cccc(Cl)c2)C(=O)C12CC(C)=C(C)CS2 (stereo not given)", "Unit label": "%", "inhibition": 6.51}

Provide inhibition for all items below, preserving their order.
1. C[C@H](NC(=O)OC(C)(C)C)c1nnc(SCC(=O)Nc2ccc(Br)cc2)o1
2. COc1cc(Cl)cc(C2NC(=O)NC(C)=C2C(=O)NCc2ccccc2)c1O (stereo not given)
3. Cc1cc([N+](=O)[O-])nn1CC(=O)Nc1ccc(Cc2ccncc2)cc1

1. 18.7
2. -8.24
3. 2.13

Please state, for each entry, its recorded inhibition.
1. CC(C)Sc1nnc([C@H](Cc2ccccc2)NC(=O)OC(C)(C)C)o1
2. Cc1c(NC(=O)CSc2nnnn2-c2ccc(C(=O)O)cc2)c(=O)n(-c2ccccc2)n1C
3. Cc1cccc(OC(C)C(=O)N2CCc3ccccc3C2)c1 (stereo not given)
4. Cc1cc(C)n(-c2ccc(C(=O)O)cc2[N+](=O)[O-])n1

[2.05, 11, -5.47, -9.75]
